Source listed as paper PMC7849821.

- subjectOfTest: USP28 (Homo sapiens, UniProt Q96RU2)
- Sequence (Q96RU2 whole entry, species assumed): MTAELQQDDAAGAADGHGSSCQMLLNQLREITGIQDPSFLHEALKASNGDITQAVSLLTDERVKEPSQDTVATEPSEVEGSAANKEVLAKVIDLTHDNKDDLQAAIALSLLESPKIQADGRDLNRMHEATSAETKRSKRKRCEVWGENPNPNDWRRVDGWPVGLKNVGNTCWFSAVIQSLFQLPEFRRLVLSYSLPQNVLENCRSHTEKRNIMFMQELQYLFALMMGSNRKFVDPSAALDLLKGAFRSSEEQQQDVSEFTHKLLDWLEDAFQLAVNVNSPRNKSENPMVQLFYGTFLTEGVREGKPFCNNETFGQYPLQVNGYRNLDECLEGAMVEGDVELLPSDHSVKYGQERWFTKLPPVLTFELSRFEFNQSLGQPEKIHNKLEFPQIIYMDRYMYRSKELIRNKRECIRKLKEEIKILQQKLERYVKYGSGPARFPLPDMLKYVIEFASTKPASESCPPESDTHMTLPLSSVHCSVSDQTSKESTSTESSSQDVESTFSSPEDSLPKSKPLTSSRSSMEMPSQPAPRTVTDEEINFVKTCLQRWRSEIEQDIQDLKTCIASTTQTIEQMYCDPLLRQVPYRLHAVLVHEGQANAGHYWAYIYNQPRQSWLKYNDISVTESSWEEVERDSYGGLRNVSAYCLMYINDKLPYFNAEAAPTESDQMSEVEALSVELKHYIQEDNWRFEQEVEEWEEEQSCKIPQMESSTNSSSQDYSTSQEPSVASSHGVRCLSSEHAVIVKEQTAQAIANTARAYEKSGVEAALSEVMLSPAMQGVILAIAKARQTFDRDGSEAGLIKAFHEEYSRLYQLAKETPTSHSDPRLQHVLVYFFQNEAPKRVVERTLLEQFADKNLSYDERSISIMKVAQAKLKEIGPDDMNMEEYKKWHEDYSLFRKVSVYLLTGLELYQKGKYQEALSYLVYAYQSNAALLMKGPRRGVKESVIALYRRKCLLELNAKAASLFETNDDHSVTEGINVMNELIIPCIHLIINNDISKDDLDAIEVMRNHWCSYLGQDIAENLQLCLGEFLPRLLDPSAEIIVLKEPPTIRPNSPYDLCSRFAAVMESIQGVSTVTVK
observable: IC50

Exam item: I have this compound here, Cc1nc2c(C(O)C(=O)N3CC4=C(C3)CN(S(=O)(=O)c3cnc5c(c3)OCCO5)C4)cccc2o1 (stereo not shown) , and I need its recorded IC50.
Marked response: > 26.7 µM

====

- subjectOfTest: USP7 (Homo sapiens, UniProt Q93009)
- Sequence (Q93009 whole entry, species assumed): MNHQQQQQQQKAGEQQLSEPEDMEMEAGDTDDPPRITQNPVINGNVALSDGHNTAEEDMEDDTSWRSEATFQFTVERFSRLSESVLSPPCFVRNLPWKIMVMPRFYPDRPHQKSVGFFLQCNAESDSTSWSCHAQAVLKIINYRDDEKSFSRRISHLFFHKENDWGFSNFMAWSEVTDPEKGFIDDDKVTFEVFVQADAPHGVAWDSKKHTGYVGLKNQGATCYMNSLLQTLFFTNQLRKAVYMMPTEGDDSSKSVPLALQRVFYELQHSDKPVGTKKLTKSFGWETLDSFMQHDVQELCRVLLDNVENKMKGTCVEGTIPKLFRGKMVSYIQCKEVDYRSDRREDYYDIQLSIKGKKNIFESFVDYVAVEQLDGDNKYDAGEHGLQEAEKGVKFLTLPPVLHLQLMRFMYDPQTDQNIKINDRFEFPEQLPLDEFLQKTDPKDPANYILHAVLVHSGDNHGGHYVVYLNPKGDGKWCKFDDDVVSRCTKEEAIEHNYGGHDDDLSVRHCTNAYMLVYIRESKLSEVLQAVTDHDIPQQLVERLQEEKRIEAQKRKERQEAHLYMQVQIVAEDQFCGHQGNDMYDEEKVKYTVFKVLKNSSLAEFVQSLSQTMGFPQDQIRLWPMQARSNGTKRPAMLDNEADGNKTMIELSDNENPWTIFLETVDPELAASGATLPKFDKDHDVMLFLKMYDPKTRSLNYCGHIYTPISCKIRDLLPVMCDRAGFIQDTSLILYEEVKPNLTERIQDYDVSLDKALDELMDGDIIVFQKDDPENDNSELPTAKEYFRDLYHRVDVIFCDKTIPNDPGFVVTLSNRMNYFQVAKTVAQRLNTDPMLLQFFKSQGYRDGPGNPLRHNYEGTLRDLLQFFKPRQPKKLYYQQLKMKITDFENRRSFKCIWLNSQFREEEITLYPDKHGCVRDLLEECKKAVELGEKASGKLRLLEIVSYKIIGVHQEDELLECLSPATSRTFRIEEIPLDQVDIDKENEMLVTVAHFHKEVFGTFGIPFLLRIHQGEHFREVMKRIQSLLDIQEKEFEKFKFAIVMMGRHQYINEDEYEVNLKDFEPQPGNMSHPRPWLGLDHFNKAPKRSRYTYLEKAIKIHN
observable: IC50

Exam item: What measured IC50 is associated with Cc1nc2c(C(O)C(=O)N3CC4=C(C3)CN(S(=O)(=O)c3cnc5c(c3)OCCO5)C4)cccc2o1 (stereo not shown) [FT709] on USP7 (Homo sapiens, UniProt Q93009)?
Marked response: > 25.8 µM
